For each entry below, report its Ki value.
# TARGET OF ASSAY: BCL-XL (UniProt Q07817 1-209)
# Sequence (Q07817 1-209): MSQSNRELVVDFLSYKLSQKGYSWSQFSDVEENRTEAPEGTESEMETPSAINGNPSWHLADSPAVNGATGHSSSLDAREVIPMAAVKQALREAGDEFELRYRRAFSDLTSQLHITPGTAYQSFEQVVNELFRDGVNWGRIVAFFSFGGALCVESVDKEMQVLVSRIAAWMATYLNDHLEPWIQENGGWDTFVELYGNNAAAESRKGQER
# TEST NAME: Ki table, method not stated
Positions of bridges follow the written chain, without caps; N, C: chain ends. Non-standard residues stand in square brackets, D forms with d. R8 = C=CCCCCCC[C@@](C)(N)C(=O)O; S5 = C=CCCC[C@](C)(N)C(=O)O
One number for each entry, in nM.

IWIAQALRAIGDAFNAYYA (not fully specified; Ac- at N-terminus; -NH2 at C-terminus; $r8 at 9 and $ at 16 joined by all-carbon crosslinker) [SEQ ID NO: 1633]; 22.4
IWIAQALRAIGDEFNAYYARR (not fully specified; Ac- at N-terminus; -NH2 at C-terminus; $r8 at 9 and $ at 16 joined by all-carbon crosslinker) [SEQ ID NO: 1628]; 3.9
Ac-IAQALR[R8]IGDAFN[S5]YYA-NH2 (staple 7-14; SMILES CC[C@H](C)[C@H](NC(C)=O)C(=O)N[C@@H](C)C(=O)N[C@@H](CCC(N)=O)C(=O)N[C@@H](C)C(=O)N[C@@H](CC(C)C)C(=O)N[C@@H](CCCNC(=N)N)C(=O)N[C@]1(C)CCCCCCC=CCCC[C@@](C)(C(=O)N[C@@H](Cc2ccc(O)cc2)C(=O)N[C@@H](Cc2ccc(O)cc2)C(=O)N[C@@H](C)C(N)=O)NC(=O)[C@H](CC(N)=O)NC(=O)[C@H](Cc2ccccc2)NC(=O)[C@H](C)NC(=O)[C@H](CC(=O)O)NC(=O)CNC(=O)[C@H]([C@@H](C)CC)NC1=O, also called Ac-IAQALR$r8IGDAFN$YYA-NH2) [SEQ ID NO: 1635]; 309

Looking up Ac-IAQALR[R8]IGDAFA[S5]YYA-NH2 (staple 7-14; SMILES CC[C@H](C)[C@H](NC(C)=O)C(=O)N[C@@H](C)C(=O)N[C@@H](CCC(N)=O)C(=O)N[C@@H](C)C(=O)N[C@@H](CC(C)C)C(=O)N[C@@H](CCCNC(=N)N)C(=O)N[C@]1(C)CCCCCCC=CCCC[C@@](C)(C(=O)N[C@@H](Cc2ccc(O)cc2)C(=O)N[C@@H](Cc2ccc(O)cc2)C(=O)N[C@@H](C)C(N)=O)NC(=O)[C@H](C)NC(=O)[C@H](Cc2ccccc2)NC(=O)[C@H](C)NC(=O)[C@H](CC(=O)O)NC(=O)CNC(=O)[C@H]([C@@H](C)CC)NC1=O, also called Ac-IAQALR$r8IGDAFA$YYA-NH2) [SEQ ID NO: 1631] , I see its Ki listed as 374
